Measured values drawn from a melting point compilation (Tetko et al.) for this set.

Below, each entry is listed alongside its reported melting point.

# annotated cases, reported melting point shown
Nc1ccc(CC(=O)N2CCSCC2)cc1 : 118 to 120 °C
CC(C)(C)c1ccc(N2CCC(=O)CC2)cc1 : 69 to 71 °C
CC(N)c1ccc(NC(=O)Nc2ccccc2)cc1 (configuration not stated) : 165 to 167 °C
COc1ccc2c(c1)NC(=O)CO2 : 157 to 159 °C

### Prompt Tell me the measured melting point of "Cc1c(C(=O)O)oc2c(F)cccc12" , please.
### Response 236 to 238 °C

### Prompt melting point for "CC(=O)c1ccc(-n2cnc3ccccc32)cc1" ?
### Response 135 to 137 °C

###

Reported melting point values are given for each entry in this list.

Some solved entries appear below for comparison.
NC(=S)NCC(F)(F)F : 154 to 156 °C
Nc1ccc(C(=O)NC2CCCC2)cc1 : 141 to 143 °C
CC(Cl)C(=O)Nc1ccccc1Br (stereo not drawn) : 75 to 77 °C
O=Cc1cc(Br)ccc1OCC(=O)O : 170 to 172 °C
CC(C)(C)S(=O)(=O)Cc1ccc(N)cc1 : 211 to 213 °C
COc1cccc(C2(C(=O)O)CCCC2)c1 : 125 to 127 °C
O=C1CCc2cc(Cl)c(S(=O)(=O)Cl)cc2N1 : 207 to 209 °C
O=C(O)c1ccc(-c2cccs2)cc1F : 228 to 230 °C
Cc1ccc(O)c(C(=O)Nc2nc(CC(=O)O)cs2)c1 : 271 to 273 °C
Cc1ccc(N)c(C)c1S(=O)(=O)NC1CC1 : 96 to 98 °C

### Prompt Record request: melting point value, item "CCOC(=O)c1nc(-c2cccs2)oc1N"
### Response 164 to 166 °C

### Prompt Recorded melting point for "CN1CCC(=O)Nc2cc(C(=O)O)ccc21" , please?
### Response 249 to 251 °C

### Prompt # melting point lookup, item "Oc1ccc2ccccc2c1CN1CCOCC1"
### Response 52 to 54 °C

###

MEASURED PARAMETER: melting point

### Prompt Quick one: melting point for "COC(=O)c1ccc(CC#N)cc1" ?
### Response 55 to 58 °C

### Prompt Report melting point for Cc1cc(N)n(C2CCOC2)n1 (stereo not given) please.
### Response 91 to 93 °C

### Prompt Need melting point of "N#Cc1cccc(NC(=O)CCCl)c1" , thanks.
### Response 98 to 100 °C

### Prompt Please report the recorded melting point for "COCCn1c(S)nnc1-c1ccccc1" .
### Response 133 to 135 °C

### Prompt Look up melting point: "CCCn1c(CCC(=O)O)nc2cc(S(N)(=O)=O)ccc21"
### Response 259 to 261 °C

### Prompt Quick one: melting point of "Cn1nc(C2CCCCC2)cc1N" ?
### Response 169 to 171 °C

### Prompt What does the data say about its melting point? Entry: "COc1cc(C(=O)O)cc(NC(C)=O)c1OC"
### Response 229 to 231 °C

### Prompt Look up melting point: "O=C(O)c1sccc1S(=O)(=O)N1CCOCC1"
### Response 189 to 191 °C

### Prompt // lookup melting point for "CS(=O)(=O)c1cc(C(=O)O)ccc1Br"
### Response 236 to 238 °C

### Prompt Item under review: "O=C(O)Cn1c(-c2ccccc2)cc2ccccc21" . Reported melting point?
### Response 145 to 147 °C

### Prompt What melting point value was documented for this molecule, "CCc1cc(=O)[nH]c(-c2ccnc(Cl)c2)n1" ?
### Response 217 to 219 °C

### Prompt Dear colleague, I am looking for the recorded melting point of the following molecule: "CC(C)CS(=O)(=O)CCC(=O)O"
### Response 110 to 112 °C
